- Tested on: 616215-338-R-J1-PDC complex spheroid viability
- protocol-summary: Anticancer human tumor 616215-338-R-J1-PDC patient-derived colon adenocarcinoma cell line growth inhibition [POLQ]; active = viability on the fitted dose curve at most 10% of control; inactive = the rest
- test-parameters: second compound 0.1 µM; first compound 10 µM
Select the matching outcome among active, inactive

Called result for O=C(Nc1ccc(O)c(NS(=O)(=O)c2ccc(F)cc2)c1)c1ccc(-c2ccccc2)cc1 + Cc1cccc(N(C)C(=O)C2C(O)CCN2c2nc(C)cc(C(F)(F)F)c2C#N)c1 inactive

Called result for CC1COCCN1c1cc(C2(S(C)(=N)=O)CC2)nc(-c2ccnc3[nH]ccc23)n1 (stereo not given) + Cc1cccc(N(C)C(=O)C2C(O)CCN2c2nc(C)cc(C(F)(F)F)c2C#N)c1 inactive

Called result for COc1cccc2c1C(=O)c1c(O)c3c(c(O)c1C2=O)CC(O)(C(=O)CO)CC3OC1CC(N)C(O)C(C)O1 (stereo not given) + Nc1ccc(C#CCN(C(=O)Cc2ncc(C(F)(F)F)cc2C(F)(F)F)c2ccc(F)cc2)nn1 active

Called result for CCc1cc2c(N3CCc4c(cc(Cn5ccnc5)cc4-c4cn(C)nc4C(F)(F)F)C3=O)cc(C)nc2c(OC)n1 + Nc1ccc(C#CCN(C(=O)Cc2ncc(C(F)(F)F)cc2C(F)(F)F)c2ccc(F)cc2)nn1 inactive

Called result for C#Cc1c(F)ccc2cc(O)cc(-c3ncc4c(N5CC6CCC(C5)N6)nc(OCC56CCCN5CC(F)C6)nc4c3F)c12 (stereo not given) + COC1C(OC(N)=O)C(O)C(Oc2ccc3c(O)c(NC(=O)c4ccc(O)c(CC=C(C)C)c4)c(=O)oc3c2C)OC1(C)C inactive

Called result for C=CC(=O)N1CCN(c2nc(=O)n(-c3c(C)ccnc3C(C)C)c3nc(-c4c(O)cccc4F)c(F)cc23)C(C)C1 (stereo not given) + Cc1cccc(N(C)C(=O)C2C(O)CCN2c2nc(C)cc(C(F)(F)F)c2C#N)c1 inactive

Called result for O=C(Nc1ccc(O)c(NS(=O)(=O)c2ccc(F)cc2)c1)c1ccc(-c2ccccc2)cc1 + Nc1ccc(C#CCN(C(=O)Cc2ncc(C(F)(F)F)cc2C(F)(F)F)c2ccc(F)cc2)nn1 inactive

Called result for CCCS(=O)(=O)Nc1ccc(F)c(C(=O)c2c[nH]c3ncc(-c4ccc(Cl)cc4)cc23)c1F + Nc1ccc(C#CCN(C(=O)Cc2ncc(C(F)(F)F)cc2C(F)(F)F)c2ccc(F)cc2)nn1 inactive

Called result for COc1ccc([C@@H](O)c2cc(-c3ncnc4cc(N5CCOCC5)ccc34)c(F)cc2Cl)nn1 + COC1C(OC(N)=O)C(O)C(Oc2ccc3c(O)c(NC(=O)c4ccc(O)c(CC=C(C)C)c4)c(=O)oc3c2C)OC1(C)C inactive

Called result for Nc1ccn(C2OC(CO)C(O)C2(F)F)c(=O)n1 (stereo not given) + COC1C(OC(N)=O)C(O)C(Oc2ccc3c(O)c(NC(=O)c4ccc(O)c(CC=C(C)C)c4)c(=O)oc3c2C)OC1(C)C inactive

====

- Test system: 616215-338-R-J1-PDC complex spheroid viability
- protocol-summary: Anticancer human tumor 616215-338-R-J1-PDC cell line growth inhibition [POLQ];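 also: spheroids exposed to compounds for one week before readout; percent viability relative to DMSO vehicle wells taken as 100%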
- test-parameters: second compound 1 µM; first compound 0.316 µM; stronger effect = lower value
Please use MET for viability, T/C under 70% and NOT MET for everything else, ties included.

Lab log: compare recorded viability, T/C with 70%; is it strictly lower for CNCc1ccc(-c2[nH]c3cc(F)cc4c3c2CCNC4=O)cc1 + Nc1ccc(C#CCN(C(=O)Cc2ncc(C(F)(F)F)cc2C(F)(F)F)c2ccc(F)cc2)nn1 ? NOT MET

Lab log: compare recorded viability, T/C with 70%; is it strictly lower for CCc1cc2c(N3CCc4c(cc(Cn5ccnc5)cc4-c4cn(C)nc4C(F)(F)F)C3=O)cc(C)nc2c(OC)n1 + Cc1cccc(N(C)C(=O)C2C(O)CCN2c2nc(C)cc(C(F)(F)F)c2C#N)c1 ? NOT MET

Lab log: compare recorded viability, T/C with 70%; is it strictly lower for CNCc1ccc(-c2[nH]c3cc(F)cc4c3c2CCNC4=O)cc1 + Cc1cccc(N(C)C(=O)C2C(O)CCN2c2nc(C)cc(C(F)(F)F)c2C#N)c1 ? NOT MET

Lab log: compare recorded viability, T/C with 70%; is it strictly lower for C=CCn1c(=O)c2cnc(Nc3ccc(N4CCN(C)CC4)cc3)nc2n1-c1cccc(C(C)(C)O)n1 + Nc1ccc(C#CCN(C(=O)Cc2ncc(C(F)(F)F)cc2C(F)(F)F)c2ccc(F)cc2)nn1 ? MET

Lab log: compare recorded viability, T/C with 70%; is it strictly lower for COc1cccc(OCCCN)c1-c1cc(Nc2cnc(C#N)cn2)n[nH]1 + Nc1ccc(C#CCN(C(=O)Cc2ncc(C(F)(F)F)cc2C(F)(F)F)c2ccc(F)cc2)nn1 ? MET

Lab log: compare recorded viability, T/C with 70%; is it strictly lower for CC(C)n1c(=O)n(C)c2cnc3cc(F)c(-c4ccc(OCCCN5CCCCC5)nc4)cc3c21 + Nc1ccc(C#CCN(C(=O)Cc2ncc(C(F)(F)F)cc2C(F)(F)F)c2ccc(F)cc2)nn1 ? NOT MET

Lab log: compare recorded viability, T/C with 70%; is it strictly lower for CC1COCCN1c1cc(C2(O)CC3CCC(C2)O3)c2cnn(-c3ccn[nH]3)c2n1 (stereo unspecified) + COC1C(OC(N)=O)C(O)C(Oc2ccc3c(O)c(NC(=O)c4ccc(O)c(CC=C(C)C)c4)c(=O)oc3c2C)OC1(C)C ? NOT MET

Lab log: compare recorded viability, T/C with 70%; is it strictly lower for CCCS(=O)(=O)Nc1ccc(F)c(C(=O)c2c[nH]c3ncc(-c4ccc(Cl)cc4)cc23)c1F + Nc1ccc(C#CCN(C(=O)Cc2ncc(C(F)(F)F)cc2C(F)(F)F)c2ccc(F)cc2)nn1 ? NOT MET

Lab log: compare recorded viability, T/C with 70%; is it strictly lower for CCc1c2c(nc3ccc(O)cc13)-c1cc3c(c(=O)n1C2)COC(=O)[C@]3(O)CC + COC1C(OC(N)=O)C(O)C(Oc2ccc3c(O)c(NC(=O)c4ccc(O)c(CC=C(C)C)c4)c(=O)oc3c2C)OC1(C)C ? MET

====

- Test system: 616215-338-R-J1-PDC complex spheroid viability
- protocol-summary: Anticancer human tumor 616215-338-R-J1-PDC cell line growth inhibition [POLQ];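 also: spheroids exposed to compounds for one week before readout; percent viability relative to DMSO vehicle wells taken as 100%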
- test-parameters: second compound 0.1 µM; first compound 10 µM; stronger effect = lower value
- Description: Multicellular complex tumor spheroid response to Polymerase (POL) inhibitors (novobiocin, ART-558, RP6685) in combination with a variety of drugs and investigational agents in selected tumor cell lines The POL inhibitors (novobiocin, ART-558, and RP6685) were evaluated both individually and in combination with standard of care and investigational anticancer small molecules within a complex spheroid model of solid tumors. . […]
Please use MET for viability, T/C under 50% and NOT MET for everything else, ties included.

Lab log: compare recorded viability, T/C with 50%; is it strictly lower for Nc1ccn(C2OC(CO)C(O)C2(F)F)c(=O)n1 (stereo unspecified) + Cc1cccc(N(C)C(=O)C2C(O)CCN2c2nc(C)cc(C(F)(F)F)c2C#N)c1 ? MET

Lab log: compare recorded viability, T/C with 50%; is it strictly lower for CCc1cc2c(N3CCc4c(cc(Cn5ccnc5)cc4-c4cn(C)nc4C(F)(F)F)C3=O)ccnc2c(OC)n1 + Cc1cccc(N(C)C(=O)C2C(O)CCN2c2nc(C)cc(C(F)(F)F)c2C#N)c1 ? MET

Lab log: compare recorded viability, T/C with 50%; is it strictly lower for CCc1cc2c(N3CCc4c(cc(Cn5ccnc5)cc4-c4cn(C)nc4C(F)(F)F)C3=O)ccnc2c(OC)n1 + Nc1ccc(C#CCN(C(=O)Cc2ncc(C(F)(F)F)cc2C(F)(F)F)c2ccc(F)cc2)nn1 ? MET

Lab log: compare recorded viability, T/C with 50%; is it strictly lower for O=c1[nH]cc(F)c(=O)[nH]1 + Nc1ccc(C#CCN(C(=O)Cc2ncc(C(F)(F)F)cc2C(F)(F)F)c2ccc(F)cc2)nn1 ? MET

Lab log: compare recorded viability, T/C with 50%; is it strictly lower for COc1cc2cc(C(=O)CCC(=O)O)sc2cc1OC + Cc1cccc(N(C)C(=O)C2C(O)CCN2c2nc(C)cc(C(F)(F)F)c2C#N)c1 ? NOT MET

Lab log: compare recorded viability, T/C with 50%; is it strictly lower for CC1COCCN1c1cc(C2(S(C)(=N)=O)CC2)nc(-c2ccnc3[nH]ccc23)n1 (stereo unspecified) + COC1C(OC(N)=O)C(O)C(Oc2ccc3c(O)c(NC(=O)c4ccc(O)c(CC=C(C)C)c4)c(=O)oc3c2C)OC1(C)C ? NOT MET

====

- Test system: 616215-338-R-J1-PDC complex spheroid viability
- protocol-summary: Anticancer human tumor 616215-338-R-J1-PDC cell line growth inhibition [POLQ];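 also: spheroids exposed to compounds for one week before readout; percent viability relative to DMSO vehicle wells taken as 100%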
- test-parameters: second compound 0.316 µM; first compound 3.16 µM; stronger effect = lower value
measurement-kind: viability, T/C (%)
Answer with a number only, understood to be in %.

Documented viability, T/C of C=CC(=O)N1CCN(c2nc(=O)n(-c3c(C)ccnc3C(C)C)c3nc(-c4c(O)cccc4F)c(F)cc23)C(C)C1 (stereo not drawn) + Nc1ccc(C#CCN(C(=O)Cc2ncc(C(F)(F)F)cc2C(F)(F)F)c2ccc(F)cc2)nn1 : 78.8

Documented viability, T/C of COc1cc2cc(C(=O)CCC(=O)O)sc2cc1OC + COC1C(OC(N)=O)C(O)C(Oc2ccc3c(O)c(NC(=O)c4ccc(O)c(CC=C(C)C)c4)c(=O)oc3c2C)OC1(C)C : 101

Documented viability, T/C of CCCS(=O)(=O)Nc1ccc(F)c(C(=O)c2c[nH]c3ncc(-c4ccc(Cl)cc4)cc23)c1F + COC1C(OC(N)=O)C(O)C(Oc2ccc3c(O)c(NC(=O)c4ccc(O)c(CC=C(C)C)c4)c(=O)oc3c2C)OC1(C)C : 83.8
